target: ATP-binding cassette sub-family C member 2 (Homo sapiens, UniProt Q92887); assay: Inhibition of ABCC2 (unknown origin) expressed in MDCK2 cells assessed as inhibition of calcein-AM efflux measured after 30 mins in presence of ABCB1 inhibitor GF120918 and ABCC1 inhibitor MK-571 by flow cytometry
Sequence (Q92887 whole entry): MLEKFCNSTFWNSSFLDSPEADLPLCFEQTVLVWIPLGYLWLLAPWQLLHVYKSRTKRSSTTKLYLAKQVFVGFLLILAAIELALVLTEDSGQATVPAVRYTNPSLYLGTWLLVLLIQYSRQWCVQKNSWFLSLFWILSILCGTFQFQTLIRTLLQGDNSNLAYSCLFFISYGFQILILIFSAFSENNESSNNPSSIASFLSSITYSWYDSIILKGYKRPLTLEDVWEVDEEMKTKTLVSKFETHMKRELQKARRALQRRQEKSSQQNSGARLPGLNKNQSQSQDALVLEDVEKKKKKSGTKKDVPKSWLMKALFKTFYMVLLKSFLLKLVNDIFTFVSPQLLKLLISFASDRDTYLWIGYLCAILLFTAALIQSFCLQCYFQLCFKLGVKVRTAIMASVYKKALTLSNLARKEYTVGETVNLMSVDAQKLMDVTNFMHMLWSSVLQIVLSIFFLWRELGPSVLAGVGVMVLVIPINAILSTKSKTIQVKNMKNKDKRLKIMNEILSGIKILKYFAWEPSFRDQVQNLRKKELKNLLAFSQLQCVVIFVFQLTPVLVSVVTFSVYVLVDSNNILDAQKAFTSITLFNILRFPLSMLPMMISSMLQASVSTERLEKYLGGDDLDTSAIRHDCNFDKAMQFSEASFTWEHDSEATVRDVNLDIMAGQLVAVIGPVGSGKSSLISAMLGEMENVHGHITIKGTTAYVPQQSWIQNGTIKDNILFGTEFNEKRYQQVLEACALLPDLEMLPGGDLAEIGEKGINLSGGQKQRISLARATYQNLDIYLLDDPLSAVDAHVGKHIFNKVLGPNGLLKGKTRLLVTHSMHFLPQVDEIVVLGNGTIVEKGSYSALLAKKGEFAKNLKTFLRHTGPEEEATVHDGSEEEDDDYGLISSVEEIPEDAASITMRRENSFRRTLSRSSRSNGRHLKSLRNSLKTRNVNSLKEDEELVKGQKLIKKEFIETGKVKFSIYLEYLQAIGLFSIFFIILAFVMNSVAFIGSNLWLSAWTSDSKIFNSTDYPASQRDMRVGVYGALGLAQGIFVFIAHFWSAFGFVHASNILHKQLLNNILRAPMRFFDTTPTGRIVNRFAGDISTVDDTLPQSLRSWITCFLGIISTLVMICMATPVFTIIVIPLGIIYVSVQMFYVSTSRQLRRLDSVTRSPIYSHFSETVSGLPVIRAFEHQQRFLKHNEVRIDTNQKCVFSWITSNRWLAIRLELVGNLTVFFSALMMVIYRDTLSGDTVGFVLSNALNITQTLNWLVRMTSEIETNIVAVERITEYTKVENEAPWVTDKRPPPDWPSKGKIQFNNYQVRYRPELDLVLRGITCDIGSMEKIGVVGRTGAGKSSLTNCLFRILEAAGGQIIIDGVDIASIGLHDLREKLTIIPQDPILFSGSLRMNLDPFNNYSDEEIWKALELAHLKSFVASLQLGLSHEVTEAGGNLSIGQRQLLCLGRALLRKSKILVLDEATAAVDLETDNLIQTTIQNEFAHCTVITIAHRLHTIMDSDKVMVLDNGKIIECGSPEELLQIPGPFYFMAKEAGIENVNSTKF
Can you tell me IC50 for the items I'm about to list?
One number for each entry, in µM.

>  <cpdSmiles>
Cn1cc(/C=C2\Oc3cc(O)cc(O)c3C2=O)c2cc(Br)ccc21

>  <unitsText>
µM

>  <IC50>
4.5

$$$$
>  <cpdSmiles>
Cn1c(/C=C2\Oc3cc(O)cc(O)c3C2=O)cc2ccccc21

>  <unitsText>
µM

>  <IC50>
11.1

$$$$

Next:
Sure, the documented IC50 for COc1ccc2c(c1)c(/C=C1\Oc3cc(O)cc(O)c3C1=O)cn2CC1CCCCC1 is 4.1
